System: NCI/ADR-RES ovarian
Assay: NCI tumour cell line growth inhibition, 48 h
MEASURED_METRIC: TGI

Observe how each entry below is paired with its result.
CC(=O)N/N=C1\NC(=O)C[C@H]2[C@@H]3CC=C4C[C@@H](OC(C)=O)CC[C@]4(C)[C@H]3CC[C@]12C ... > 100 µM
CC1(C)N=C(N)N=C(N)N1c1ccc(OCC(=O)Nc2ccccc2)c(Cl)c1 ... > 100 µM

Entry CSc1c(C#N)c(N)n2c1C(=O)N(c1ccccc1)C2=S , TGI reported as > 100 µM

----------
Tested on: KM20L2 colon
Assay: NCI tumour cell line growth inhibition, 48 h
MEASURED_METRIC: TGI

CC1=C(C(=O)Nc2ccccc2C)C(/C=C/c2ccccc2)C(C(=O)Nc2ccccc2C)=C(C)N1 ... > 100 µM
O=c1c(Cl)c(Cl)cnn1CCc1ccncc1 ... 36.2 µM
O=S(=O)(O)c1cc2ccc1/C=C\c1ccc(cc1S(=O)(=O)O)N=Nc1ccc(c(S(=O)(=O)O)c1)/C=C\c1ccc(cc1S(=O)(=O)O)N=N2 ... > 100 µM

Memo: Cc1ccc2nc3c(Cl)c(C)c(=O)cc-3sc2c1 , reported TGI: > 100 µM

Reported TGI of COc1cc2cnc3c4ccccc4ccc3c2cc1OC : > 100 µM

Field TGI (entry Cc1ccc(S(=O)(=O)N/N=C(\c2nc3ccc([N+](=O)[O-])cc3[nH]c2=O)C(O)c2ccccc2Cl)cc1 (centres undefined) ) reads > 100 µM

Lab book: TGI of COC1OC(C)C(OCc2ccccc2)C(OS(=O)(=O)c2ccc(C)cc2)C1OS(=O)(=O)c1ccc(C)cc1 (centres undefined) noted as > 100 µM

The value of TGI measured for the compound N=S(c1ccccc1)c1ccccc1[N+](=O)[O-] (centres undefined) turned out to be 41.5 µM

Entry C=CCC1[C@@H](C(C)(C)C(C(C)=O)C(=O)C(=O)OC)OC(C(C)(C)C)N1C(=O)OC (some centres undefined) — recorded TGI = > 100 µM

----------
System: OVCAR-4 ovarian
Assay: NCI tumour cell line growth inhibition, 48 h
MEASURED_METRIC: GI50

Example molecules with recorded GI50:
CCOC1Oc2ccccc2-c2oc(=O)c(Sc3ccc(C)cc3)cc21 (stereo unspecified) ... 25100 nM
C[C@H]1[C@H](C)CC[C@]2(C(=O)NCCNCCN)CC[C@]3(C)C(=CC[C@@H]4[C@@]5(C)CCC(=O)C(C)(C)[C@@H]5CC[C@]43C)[C@H]12 ... 1930 nM
O=S1(=O)NCCCN1CCNc1nccc(-c2c(-c3cccc(O)c3)nc3sccn23)n1 ... 17500 nM
C=C1CC2(OC1=O)C(=O)N(CCCN1C(=O)C3(CC(=C)C(=O)O3)c3ccccc31)c1ccccc12 (stereo unspecified) ... 1520 nM
COc1cc2c(cc1-c1c(C)noc1C)cc(C)c(=O)n2Cc1ccccn1 ... 1330 nM

Reported GI50 for Cc1cc(Nc2nc(SCc3ccc(C(=O)Nc4ccc(F)cc4N)cc3)nn3cccc23)n[nH]1 was 1660 nM

// GI50 value for Cn1c(/C(C#N)=C/c2ccc3ccccc3c2)cc2ccccc21 : > 100000 nM

For record O=C1C(Cl)=C(Nc2ccccc2)C(=O)c2ccccc21 the listed GI50 is 1630 nM

For this molecule ( CCN(CC)CCNC(=O)c1cn2ncnc(Oc3ccc(NC(=O)Nc4ccc(Cl)c(C(F)(F)F)c4)c(F)c3)c2c1C ), measured GI50 is 1740 nM

Form field GI50, entry C=C(CN1CCc2ccccc2C1)c1ccc(C(=O)Nc2ccccc2N)cc1 : 1920 nM

The molecule listed as COc1ccc(-c2nnc(N3CCN(C(=O)CN4CCN(c5ccc(OC)cc5)CC4)CC3)nc2-c2ccc(OC)cc2)cc1 shows GI50 equal to 3470 nM

Given item c1ccc(Cn2cnc3ccc(-c4nc(-c5ccc6c(c5)ncn6C5CCCCC5)cn5ccnc45)cc32)cc1 , the value recorded as its GI50 is 3060 nM

What the record says about OB1OCc2cc(/C=C/c3cccc(C(F)(F)F)c3)ccc21 : GI50 is 1860 nM

From: PubChem BioAssay (NCI)
